Tested on: 616215-338-R-J1-PDC spheroids with HUVEC/MSC, viability;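 further: spheroids exposed to agents for seven days before the viability read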
Experiment: Anticancer human tumor 616215-338-R-J1-PDC patient-derived colon adenocarcinoma cell line growth inhibition [PI3K]
Conditions: curve of first compound; second compound 0.00316 µM
pIC50: −log10 of the molar value.
pIC50 for assorted compounds

Some compounds with known pIC50 results, for comparison:
Exam item: Param item = CC1(C)CCC(CN2CCN(c3ccc(C(=O)NS(=O)(=O)c4ccc(NCC5CCOCC5)c([N+](=O)[O-])c4)c(Oc4cnc5[nH]ccc5c4)c3)CC2)=C(c2ccc(Cl)cc2)C1 + COc1c(OCCCN2CCOCC2)ccc2c3n(c(=NC(=O)c4cnc(N)nc4)nc12)CCN3 ; retrieve measured pIC50.
Marked response: < 5.00

Exam item: Param item = CC(Cn1ccc(-c2ccc(C#N)c(Cl)c2)n1)NC(=O)c1cc(C(C)O)[nH]n1 (stereo not given) + COc1c(OCCCN2CCOCC2)ccc2c3n(c(=NC(=O)c4cnc(N)nc4)nc12)CCN3 ; retrieve measured pIC50.
Marked response: < 5.00

Exam item: Param item = CC1(C)CCC(Nc2ncc(C(F)(F)F)c(-c3c[nH]c4c(P(C)(C)=O)c(C#N)ccc34)n2)CN1 (stereo not given) + COc1c(OCCCN2CCOCC2)ccc2c3n(c(=NC(=O)c4cnc(N)nc4)nc12)CCN3 ; retrieve measured pIC50.
Marked response: > 7.50

Continuing:
Exam item: Param item = C=CC(=O)N1CCN(c2nc(=O)n(-c3c(C)ccnc3C(C)C)c3nc(-c4c(O)cccc4F)c(F)cc23)C(C)C1 (stereo not given) + COc1c(OCCCN2CCOCC2)ccc2c3n(c(=NC(=O)c4cnc(N)nc4)nc12)CCN3 ; retrieve measured pIC50.
Marked response: < 5.00

Exam item: Param item = CC(Cn1ccc(-c2ccc(C#N)c(Cl)c2)n1)NC(=O)c1cc(C(C)O)[nH]n1 (stereo not given) + CC(Nc1ccc2c(c1)OCCn1cc(N3C(=O)OCC3C(F)F)nc1-2)C(N)=O ; retrieve measured pIC50.
Marked response: < 5.00

Exam item: Param item = CNC(=O)c1ccc(N2C(=S)N(c3ccc(C#N)c(C(F)(F)F)c3)C(=O)C2(C)C)cc1F + COc1c(OCCCN2CCOCC2)ccc2c3n(c(=NC(=O)c4cnc(N)nc4)nc12)CCN3 ; retrieve measured pIC50.
Marked response: < 5.00

Exam item: Param item = Cn1cnc2c(F)c(Nc3ccc(Br)cc3Cl)c(C(=O)NOCCO)cc21 + COc1c(OCCCN2CCOCC2)ccc2c3n(c(=NC(=O)c4cnc(N)nc4)nc12)CCN3 ; retrieve measured pIC50.
Marked response: 5.65

Exam item: Param item = Cn1ncnc1[C@H]1c2n[nH]c(=O)c3cc(F)cc(c23)N[C@@H]1c1ccc(F)cc1 + COc1c(OCCCN2CCOCC2)ccc2c3n(c(=NC(=O)c4cnc(N)nc4)nc12)CCN3 ; retrieve measured pIC50.
Marked response: < 7.00

Exam item: Param item = Cn1ncc(Cl)c1-c1cc(C(=O)NC(CN)Cc2cccc(F)c2)sc1Cl (stereo not given) + CC(Nc1ccc2c(c1)OCCn1cc(N3C(=O)OCC3C(F)F)nc1-2)C(N)=O ; retrieve measured pIC50.
Marked response: 5.18

Exam item: Param item = C#Cc1c(F)ccc2cc(O)cc(-c3ncc4c(N5CC6CCC(C5)N6)nc(OCC56CCCN5CC(F)C6)nc4c3F)c12 (stereo not given) + COc1c(OCCCN2CCOCC2)ccc2c3n(c(=NC(=O)c4cnc(N)nc4)nc12)CCN3 ; retrieve measured pIC50.
Marked response: < 5.00
